# procedureText: qHTS assay to identify small molecule agonists of the constitutive androstane receptor (CAR) signaling pathway - cell viability counter screen (AID 1224836); also: nearly all actives have a fitted effect of over 45% in size
# testParameters: HepG2-CYP2B6-hCAR viability, CellTiter-Fluor, 23 h, PK11195 added to every well; series mostly up to 92.4 µM
Records with an inconclusive call do not appear. Calls of active or inactive are those of the source. Calls follow the shape of the dose curve; as a rule, active = well fitted cell-killing curve with a large enough effect in the repeat runs; inconclusive = weak or mixed curves, or effect the other way; inactive = flat fitted curve, though single readings scatter.
Respond with a class label; see 1 (yes) for active, 0 (no) for inactive

Prompt line: // return assay outcome for Nc1nc(-c2ccccc2)cs1
Response line: 0 (no)

Prompt line: // return assay outcome for CCN(CC)c1ccc2c(-c3ccc(S(=O)(=O)O)cc3S(=O)(=O)[O-])c3ccc(=[N+](CC)CC)cc-3oc2c1
Response line: 1 (yes)

Prompt line: // return assay outcome for COc1ccc(NC(=O)CC(C)=O)cc1
Response line: 0 (no)

Prompt line: // return assay outcome for Clc1nnc(Cl)c2ccccc12
Response line: 0 (no)

Prompt line: // return assay outcome for FC(F)(F)c1cccc(Cl)c1
Response line: 0 (no)

Prompt line: // return assay outcome for CCOC(=O)c1ccc(C2CCC(NC[C@H](O)COc3ccc(O)c(NS(C)(=O)=O)c3)CC2)cc1 (some centres not stated)
Response line: 0 (no)

Prompt line: // return assay outcome for Clc1ccnc(Cl)n1
Response line: 0 (no)
